From: patent US20210032312A1

Target: T1, cynomolgus monkey CD8 alpha on primary cynomolgus CD8+ T cells (cynomolgus monkey, UniProt P01732 23-235 (human entry))
T1 construct: also called Cyno CD8alpha; cyno CD8A
T1 sequence (P01732 other isoform, or with tags, fused parts or gaps limits assumed): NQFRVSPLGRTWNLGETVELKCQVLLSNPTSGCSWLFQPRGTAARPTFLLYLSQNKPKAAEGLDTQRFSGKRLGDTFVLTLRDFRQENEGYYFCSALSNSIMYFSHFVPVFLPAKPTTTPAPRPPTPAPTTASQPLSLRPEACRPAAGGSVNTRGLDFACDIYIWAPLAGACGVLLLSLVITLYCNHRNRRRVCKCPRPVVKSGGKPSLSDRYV
Assay: flow cytometry, cyno CD8+ T cells
endpointLabel: Cyno T-cell Binding 0.2 uM (MFI)

a. P283FR9P1366_G5 (designed binder, FN3 domain) LPAPKNLVVSRVTEDSARLSWTAPDAAFDSFQIAYPEYPALGEAIVLTVPGSERSYDLTGLKPGTEYFVIIIGVKGGDESFPLSAIFTT
b. P283DR9P1364_B1 (designed binder, FN3 domain) LPAPKNLVVSRVTEDSARLSWTAPDAAFDSFYITYPEIPLGGEAIVLTVPGSERSYDLTGLKPGTEYFVVIYGVKGGLLSSPLSAIFTT
c. P283DR9P1364_H9 (designed binder, FN3 domain) LPAPKNLVVSRVTEDSARLSWTAPDAAFDSFSISYIEYPEIPGGEAIVLTVPGSERSYDLTGLKPGTEYWVPIWGVKGGIQSWPLSAIFTT
d. P283GR7P1367_G8 (designed binder, FN3 domain) LPAPKNLVVSRVTEDSARLSWTAPDAAFDSFYIAYPEYVWGGEATSLGEAIVLTVPGSERSYDLTGLKPGTEYFVVITGVKGGLGSYPLSAIFTT
Query: Please list the entries, largest Cyno T-cell Binding 0.2 uM (MFI) first. // list labels; follow requested order
Response: c, d, b, a
